Exercise: state measured pKi for each of the compounds provided.
# measured-target: hMC4-R (Homo sapiens, UniProt P32245)
# Construct: expressed in transfected cells; host or cells: CHO-K1
# Sequence (P32245 whole entry): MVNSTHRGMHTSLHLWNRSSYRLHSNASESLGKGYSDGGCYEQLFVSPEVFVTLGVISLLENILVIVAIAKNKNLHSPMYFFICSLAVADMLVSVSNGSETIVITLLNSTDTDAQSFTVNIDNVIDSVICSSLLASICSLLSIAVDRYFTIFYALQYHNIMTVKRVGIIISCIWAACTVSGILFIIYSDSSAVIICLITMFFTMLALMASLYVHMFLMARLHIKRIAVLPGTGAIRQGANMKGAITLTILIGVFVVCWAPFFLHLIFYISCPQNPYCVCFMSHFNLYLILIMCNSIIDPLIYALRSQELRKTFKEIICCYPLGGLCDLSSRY
# experiment-description: Radioligand binding assay, [125I]-NDP-α-MSH competition, CHO-K1 membranes
# measurement-parameters: Ki KMC4-R, Table 5
Just so you know, pKi here is -log10 of the concentration in molar units; reply with that number alone.

*Q* Recorded pKi for CCCC[C@H](NC(C)=O)C(=O)N[C@H]1CSSC(C)(C)[C@@H](C(=O)O)NC(=O)[C@H](Cc2c[nH]c3ccccc23)NC(=O)[C@H](CCCNC(=N)N)NC(=O)[C@@H](Cc2ccccc2)NC(=O)[C@H](Cc2c[nH]cn2)NC(=O)[C@@H](C)NC1=O , please?
*A* 7.76

*Q* Recorded pKi for CCCC[C@H](NC(C)=O)C(=O)N[C@H]1CSSC[C@@H](C(N)=O)NC(=O)[C@H](Cc2c[nH]c3ccccc23)NC(=O)[C@H](CCCNC(=N)N)NC(=O)[C@@H](Cc2ccc3ccccc3c2)NC(=O)[C@H](Cc2c[nH]cn2)NC(=O)[C@@H](C)NC1=O , please?
*A* 8.12

*Q* Recorded pKi for CCCC[C@H](NC(C)=O)C(=O)N[C@H]1CSSC[C@@H](C(=O)O)NC(=O)[C@H](Cc2c[nH]c3ccccc23)NC(=O)[C@H](CCCNC(=N)N)NC(=O)[C@@H](Cc2ccccc2)NC(=O)[C@H](Cc2c[nH]cn2)NC(=O)[C@@H](C)NC1=O , please?
*A* 7.81

*Q* Recorded pKi for CCCC[C@H](NC(C)=O)C(=O)N[C@H]1CSSC[C@@H](C(N)=O)NC(=O)[C@H](Cc2c[nH]c3ccccc23)NC(=O)[C@H](CCCNC(=N)N)NC(=O)[C@@H](Cc2ccccc2)NC(=O)[C@H](Cc2c[nH]cn2)NC(=O)[C@@H](C)NC1=O , please?
*A* 8.12
